Catalogue of switch fluorescence ratio values
- System: ATP;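 further: ATP exposure 15 min at 22 °C before imaging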
- ASSAY SUMMARY: switch fluorescence ratio, 500 uM ATP over buffer (Cy3 cluster intensity, sum of 5 cycles each) (fold (ratio)); higher = stronger signal-on switching upon ATP binding; sequences stand for … in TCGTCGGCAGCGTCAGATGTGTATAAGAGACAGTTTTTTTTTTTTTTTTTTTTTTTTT…TC
- CONDITIONS USED: aptamer strand: ATP DNA aptamer (quencher-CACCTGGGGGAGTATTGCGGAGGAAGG + anchor), 100 nM annealed; ATP concentration: 500 uM
OBSERVATION TYPE: switch fluorescence ratio

[[record]]
residue_codes = "TTACCAGTCT"
observation_type = "switch fluorescence ratio"
data_value = 1

[[record]]
residue_codes = "GAGCAATGTG"
observation_type = "switch fluorescence ratio"
data_value = 1.22

[[record]]
residue_codes = "ATTATAGGGG"
observation_type = "switch fluorescence ratio"
data_value = 0.986

[[record]]
residue_codes = "TTTTGGCCTA"
observation_type = "switch fluorescence ratio"
data_value = 1.01

[[record]]
residue_codes = "TTTTCCAGCC"
observation_type = "switch fluorescence ratio"
data_value = 1.04

[[record]]
residue_codes = "ATGGGTCTCT"
observation_type = "switch fluorescence ratio"
data_value = 0.997

[[record]]
residue_codes = "ATGCGATTTG"
observation_type = "switch fluorescence ratio"
data_value = 1

[[record]]
residue_codes = "TGTTTTAGAC"
observation_type = "switch fluorescence ratio"
data_value = 0.997

[[record]]
residue_codes = "GGGTATCTAT"
observation_type = "switch fluorescence ratio"
data_value = 1.01

[[record]]
residue_codes = "CCCCAGTCAA"
observation_type = "switch fluorescence ratio"
data_value = 3.3

[[record]]
residue_codes = "TGTGGTTGGA"
observation_type = "switch fluorescence ratio"
data_value = 1

[[record]]
residue_codes = "TTTTTTAGTC"
observation_type = "switch fluorescence ratio"
data_value = 1

[[record]]
residue_codes = "TCTGTTGGAC"
observation_type = "switch fluorescence ratio"
data_value = 0.997

[[record]]
residue_codes = "CGTACTTTTT"
observation_type = "switch fluorescence ratio"
data_value = 1

[[record]]
residue_codes = "TTTTCATTTG"
observation_type = "switch fluorescence ratio"
data_value = 1.01

[[record]]
residue_codes = "CGCATAGCTT"
observation_type = "switch fluorescence ratio"
data_value = 1.12

[[record]]
residue_codes = "GTGACGAGGG"
observation_type = "switch fluorescence ratio"
data_value = 0.981

[[record]]
residue_codes = "TGCTGCTCAG"
observation_type = "switch fluorescence ratio"
data_value = 1.01

[[record]]
residue_codes = "ACAAGGAGGT"
observation_type = "switch fluorescence ratio"
data_value = 0.983

[[record]]
residue_codes = "GGGGTGGGGA"
observation_type = "switch fluorescence ratio"
data_value = 1

[[record]]
residue_codes = "ATGCTTATTG"
observation_type = "switch fluorescence ratio"
data_value = 0.973

[[record]]
residue_codes = "ACTTGCTATC"
observation_type = "switch fluorescence ratio"
data_value = 1.25

[[record]]
residue_codes = "GCGTAGGGG"
observation_type = "switch fluorescence ratio"
data_value = 0.967

[[record]]
residue_codes = "GACCATGGCA"
observation_type = "switch fluorescence ratio"
data_value = 1.01

[[record]]
residue_codes = "GATCATAAAA"
observation_type = "switch fluorescence ratio"
data_value = 1.02

[[record]]
residue_codes = "CAATCGACTC"
observation_type = "switch fluorescence ratio"
data_value = 1.05

[[record]]
residue_codes = "ATTGCAGCGG"
observation_type = "switch fluorescence ratio"
data_value = 1

[[record]]
residue_codes = "CGTGGCATTT"
observation_type = "switch fluorescence ratio"
data_value = 1.03

[[record]]
residue_codes = "TCGCAGGATA"
observation_type = "switch fluorescence ratio"
data_value = 1.08

[[record]]
residue_codes = "AGATAGTATT"
observation_type = "switch fluorescence ratio"
data_value = 0.986

[[record]]
residue_codes = "TTGGTAGATT"
observation_type = "switch fluorescence ratio"
data_value = 0.984

[[record]]
residue_codes = "GCTTTGTTTT"
observation_type = "switch fluorescence ratio"
data_value = 1.12

[[record]]
residue_codes = "TTCGAAAAAG"
observation_type = "switch fluorescence ratio"
data_value = 0.996

[[record]]
residue_codes = "GGGATTGTT"
observation_type = "switch fluorescence ratio"
data_value = 0.996

[[record]]
residue_codes = "CAGTGGTGGG"
observation_type = "switch fluorescence ratio"
data_value = 1.01

[[record]]
residue_codes = "TACATTCGCG"
observation_type = "switch fluorescence ratio"
data_value = 1.01

[[record]]
residue_codes = "ATCAAAATAA"
observation_type = "switch fluorescence ratio"
data_value = 1.06

[[record]]
residue_codes = "GCTACTGGCC"
observation_type = "switch fluorescence ratio"
data_value = 1.02

[[record]]
residue_codes = "AGGGGCGGGA"
observation_type = "switch fluorescence ratio"
data_value = 0.962

[[record]]
residue_codes = "TACTTAATAG"
observation_type = "switch fluorescence ratio"
data_value = 1.03

[[record]]
residue_codes = "GGCACCACCT"
observation_type = "switch fluorescence ratio"
data_value = 1.16

[[record]]
residue_codes = "TTTGAGTGAG"
observation_type = "switch fluorescence ratio"
data_value = 0.989

[[record]]
residue_codes = "CAATTGTTCC"
observation_type = "switch fluorescence ratio"
data_value = 1.04

[[record]]
residue_codes = "GGATTGAAGA"
observation_type = "switch fluorescence ratio"
data_value = 0.969

[[record]]
residue_codes = "TCTATGTTAT"
observation_type = "switch fluorescence ratio"
data_value = 0.999

[[record]]
residue_codes = "GTTTTGTGGA"
observation_type = "switch fluorescence ratio"
data_value = 1.01

[[record]]
residue_codes = "TTGCGTTTTG"
observation_type = "switch fluorescence ratio"
data_value = 0.991

[[record]]
residue_codes = "CGTGGGTTGT"
observation_type = "switch fluorescence ratio"
data_value = 0.996

[[record]]
residue_codes = "TGGGAAGAGT"
observation_type = "switch fluorescence ratio"
data_value = 0.996

[[record]]
residue_codes = "TTTTGCGGTG"
observation_type = "switch fluorescence ratio"
data_value = 1.01

[[record]]
residue_codes = "CCCGGAGTGT"
observation_type = "switch fluorescence ratio"
data_value = 1.73

[[record]]
residue_codes = "TTGGGTCAGG"
observation_type = "switch fluorescence ratio"
data_value = 1.02

[[record]]
residue_codes = "GGGTGAGTTT"
observation_type = "switch fluorescence ratio"
data_value = 1.04

[[record]]
residue_codes = "AATAGGTTAG"
observation_type = "switch fluorescence ratio"
data_value = 1

[[record]]
residue_codes = "CCGGCGGAAG"
observation_type = "switch fluorescence ratio"
data_value = 1

[[record]]
residue_codes = "GTGATTGGGG"
observation_type = "switch fluorescence ratio"
data_value = 0.97

[[record]]
residue_codes = "GCGGAATGGA"
observation_type = "switch fluorescence ratio"
data_value = 1.02

[[record]]
residue_codes = "TGCATTCTTT"
observation_type = "switch fluorescence ratio"
data_value = 1

[[record]]
residue_codes = "CCACTATTAG"
observation_type = "switch fluorescence ratio"
data_value = 1.03

[[record]]
residue_codes = "AATTTGGCAC"
observation_type = "switch fluorescence ratio"
data_value = 1.05

[[record]]
residue_codes = "AGGGGGCCGT"
observation_type = "switch fluorescence ratio"
data_value = 0.982

[[record]]
residue_codes = "AAGTTTAGCA"
observation_type = "switch fluorescence ratio"
data_value = 1.01

[[record]]
residue_codes = "TGGTGCTAAG"
observation_type = "switch fluorescence ratio"
data_value = 1.03

[[record]]
residue_codes = "GAGTAGTGTT"
observation_type = "switch fluorescence ratio"
data_value = 0.984

[[record]]
residue_codes = "TTTTATCCA"
observation_type = "switch fluorescence ratio"
data_value = 1.02

[[record]]
residue_codes = "TGTGAAACGG"
observation_type = "switch fluorescence ratio"
data_value = 0.992

[[record]]
residue_codes = "GAGCGCGAGG"
observation_type = "switch fluorescence ratio"
data_value = 0.99

[[record]]
residue_codes = "CGGTGTTGCC"
observation_type = "switch fluorescence ratio"
data_value = 0.971

[[record]]
residue_codes = "TTGGGCTAAT"
observation_type = "switch fluorescence ratio"
data_value = 0.994

[[record]]
residue_codes = "GGTCAGGGTA"
observation_type = "switch fluorescence ratio"
data_value = 1.01

[[record]]
residue_codes = "GGGGGCCTAG"
observation_type = "switch fluorescence ratio"
data_value = 0.981

[[record]]
residue_codes = "GGTGGTGGGT"
observation_type = "switch fluorescence ratio"
data_value = 0.986

[[record]]
residue_codes = "CGTTTAACAT"
observation_type = "switch fluorescence ratio"
data_value = 1.01

